- Tested on: DU-145
- method-description: NCI tumour cell line growth inhibition, 48 h
Activity calls are given as the source filed them. No stated cut-off is given here; in the data, active = GI50 up to about 1.1 µM and inactive = higher.
# GI50 annotations
observed-property: GI50

{"columns": ["molecule", "observed-property", "recorded-result"],
 "data": [
  ["COC1(OC)C2C=CC1C([C@](C)(N)CO)C2 (stereo not given in full)", "GI50", "> 100 µM (inactive)"],
  ["CS(=O)(=O)c1ccc(/C=N/NC(N)=S)cc1", "GI50", "> 100 µM (inactive)"],
  ["NS(=O)(=O)c1ccc(/N=N/c2c(O)c(C(=O)O)cc3ccccc23)cc1", "GI50", "> 100 µM (inactive)"],
  ["COc1cccc(/C=N/n2c(Cc3ccc(Cl)cc3)n[nH]c2=O)c1", "GI50", "25.8 µM (inactive)"],
  ["O=C(/C=C/c1ccccc1)CCc1c(O)c2ccccc2oc1=O", "GI50", "> 100 µM (inactive)"],
  ["NC(CC(=O)OCc1ccccc1)C(=O)OCc1ccccc1 (stereo not given)", "GI50", "> 100 µM (inactive)"],
  ["O=C1OC(c2ccc(O)c(-c3ccccc3)c2)(c2ccc(O)c(-c3ccccc3)c2)c2c(Cl)c(Cl)c(Cl)c(Cl)c21", "GI50", "> 100 µM (inactive)"],
  ["Cc1cc(S(=O)(=O)[N-]C(=C(C#N)C#N)[n+]2ccc(N(C)C)cc2)c(SCC(=O)O)cc1Cl", "GI50", "> 100 µM (inactive)"],
  ["Cc1cc(C)c2c(n1)S(=O)(=O)N(CCCN1CCN(c3cccc(C(F)(F)F)c3)CC1)c1c-2nn(C)c1C", "GI50", "> 100 µM (inactive)"],
  ["O=C(/C=C/c1ccccc1)C[C@@H](O)C[C@@H]1CC=CC(=O)O1", "GI50", "17.2 µM (inactive)"],
  ["CC[C@@H](/C=C\\CCC1(C[C@@H](N)CCC=C(C)C)OCCO1)O[Si](C(C)C)(C(C)C)C(C)C", "GI50", "19.8 µM (inactive)"],
  ["Cc1ccc(/C=C2\\CN(C)CC3=C2OC(N)=C(C#N)C3c2ccc(C)cc2)cc1 (stereo not given)", "GI50", "17.9 µM (inactive)"],
  ["CCCCCCCCCC[C@@H](O)[C@@H]1CC[C@@H]([C@@H]2CC[C@@H]([C@@H](O)CCCCCCCCCCC(O)CC3=CC(C)OC3=O)O2)O1 (stereo not given in full)", "GI50", "3.98 µM (inactive)"],
  ["C=C[C@@H]1C[C@]2(C(=O)OC)Cc3nc4ccccc4nc3CC(C(=O)OC)=C2O1", "GI50", "> 100 µM (inactive)"],
  ["Nc1nc(Cl)cc(NCC2CC(O)(CO)C2)n1 (stereo not given)", "GI50", "> 100 µM (inactive)"],
  ["O=C(Nc1nn(C(=O)c2ccc(Cl)cc2)c(=O)s1)c1ccc(Cl)cc1", "GI50", "> 100 µM (inactive)"],
  ["O=C1/C(=C/c2ccc(F)cc2)CNC/C1=C\\c1ccc(F)cc1", "GI50", "1.75 µM (inactive)"],
  ["ClC1=C(Cl)C(Cl)(Cl)SS1", "GI50", "> 10 µM (inactive)"],
  ["O=C(/C=C1\\N=C(c2ccccc2)N(c2nc3c(Cl)cc(Cl)cc3s2)C1=O)/C=C/c1ccccc1", "GI50", "> 100 µM (inactive)"],
  ["O=C(c1cc(Cl)cc(Cl)c1)N(Cc1cccnc1)C(=S)N(Cc1cccnc1)C(=O)c1cc(Cl)cc(Cl)c1", "GI50", "41.8 µM (inactive)"]
]}

Recorded values, source ChEMBL document CHEMBL1201862.
